Values compiled from patent US12187816B2.

Biological target: BRD4 (Homo sapiens)
Construct: Mean 488 intensity of BRD4 quantitated in nuclear region; endogenous in cells; host or cells: EoL-1 eosinophilic leukemia cells
Test: BRD4 degradation assay in EOL1 cells (immunofluorescence imaging)
Assay type: cell-based
Conditions: EoL-1 eosinophilic leukemia cells, 4 hours treatment, nuclear BRD4 immunofluorescence
Starred links: 1 amine or outer side, 2 acyl side, 3 side chain; linkers in the order of their positions; H or OH if unused. Positions of bridges follow the written chain, without caps; N, C: chain ends. Non-standard residues stand in square brackets, D forms with d. Residues, ends and D or L forms follow the SMILES beside them. *: point of attachment. β3hPhg(4-(4-MeThiazol-5-yl)) = Cc1ncsc1-c1ccc([C@@H](CC(=O)[*:2])N[*:1])cc1; JQ1acid = Cc1sc2c(c1C)C(c1ccc(Cl)cc1)=N[C@@H](CC(=O)*)c1nnc(C)n1-2; dPhg(4-(4-Me-thiazol-5-yl)) = Cc1ncsc1-c1ccc([C@@H](N)C(=O)O)cc1; Phg(4-(4-Me-thiazol-5-yl)) = Cc1ncsc1-c1ccc([C@H](N)C(=O)O)cc1; X9 = O=C(C[C@@H](Cc1ccc(-c2ccccc2)cc1)N[*:1])[*:2]; X3 = Cc1ncsc1-c1ccc(C(N[*:1])C(=O)[*:2])cc1; dBip = N[C@H](Cc1ccc(-c2ccccc2)cc1)C(=O)O; dLys(N3) = [N-]=[N+]=NCCCC[C@@H](N)C(=O)O; NHCH2CH2SCH2CO = O=C(CSCCN[*:1])[*:2]; Hyp = O=C(O)[C@@H]1C[C@@H](O)CN1; Tle = CC(C)(C)[C@H](N)C(=O)O; d(hCys) = N[C@H](CCS)C(=O)O; dDab = NCC[C@@H](N)C(=O)O; dDap = NC[C@@H](N)C(=O)O; Ahx = NCCCCCC(=O)O; AEA = NCCOCC(=O)O; βAla = NCCC(=O)O
valueType: DC50

• Cc1ncsc1-c1ccc(C2NC(=O)[C@@H]3C[C@@H](O)CN3C(=O)[C@H](C(C)(C)C)NC(=O)CSCC[C@H](C(N)=O)NC(=O)[C@@H](CNC(=O)C[C@@H]3N=C(c4ccc(Cl)cc4)c4c(sc(C)c4C)-n4c(C)nnc43)NC(=O)CNC2=O)cc1 (stereo partly drawn) [Compound 3] ({CH2CO}-[Tle][Hyp][X3]G[dDap](JQ1acid)[d(hCys)]-NH2; thioether N-6) = < 1 µM
• Cc1sc2c(c1C)C(c1ccc(Cl)cc1)=N[C@@H](CC(=O)NC[C@H]1NC(=O)[C@@H](CCCCN=[N+]=[N-])NC(=O)[C@@H](Cc3ccc(-c4ccccc4)cc3)NC(=O)[C@@H]3C[C@@H](O)CN3C(=O)[C@H](C(C)(C)C)NC(=O)COCCNC1=O)c1nnc(C)n1-2 [Compound 71] (cyclo([AEA][Tle][Hyp][dBip][dLys(N3)][dDap](JQ1acid))) = < 1 µM
• Cc1sc2c(c1C)C(c1ccc(Cl)cc1)=N[C@@H](CC(=O)NC[C@H]1NC(=O)CNC(=O)[C@@H](Cc3ccc(-c4ccccc4)cc3)NC(=O)[C@@H]3C[C@@H](O)CN3C(=O)[C@H](C(C)(C)C)n3cc(nn3)COCCN(C)C1=O)c1nnc(C)n1-2 = < 0.05 µM
• Cc1ncsc1-c1ccc([C@@H]2NC(=O)[C@@H]3C[C@@H](O)CN3C(=O)[C@H](C(C)(C)C)NC(=O)CSC[C@H](C(N)=O)NC(=O)[C@@H](CNC(=O)C[C@@H]3N=C(c4ccc(Cl)cc4)c4c(sc(C)c4C)-n4c(C)nnc43)NC(=O)[C@@H](C)NC2=O)cc1 [Compound 31] ({CH2CO}-[Tle][Hyp][Phg(4-(4-Me-thiazol-5-yl))][dA][dDap](JQ1acid)[dC]-NH2; thioether N-6) = > 20 µM
• Cc1ncsc1-c1ccc([C@H]2NC(=O)[C@@H]3C[C@@H](O)CN3C(=O)[C@H](C(C)(C)C)NC(=O)CSCCNC(=O)[C@@H](CNC(=O)C[C@@H]3N=C(c4ccc(Cl)cc4)c4c(sc(C)c4C)-n4c(C)nnc43)NC(=O)CNC2=O)cc1 [Compound 46] (cyclo(G[dDap](JQ1acid)[NHCH2CH2SCH2CO][Tle][Hyp][dPhg(4-(4-Me-thiazol-5-yl))])) = < 1 µM
• Cc1sc2c(c1C)C(c1ccc(Cl)cc1)=N[C@@H](CC(=O)NC[C@H]1NC(=O)CNC(=O)[C@@H](Cc3ccc(-c4ccccc4)cc3)NC(=O)[C@@H]3C[C@@H](O)CN3C(=O)[C@H](C(C)(C)C)n3cc(nn3)COCCNC1=O)c1nnc(C)n1-2 [Compound 200] = < 0.05 µM
• Cc1sc2c(c1C)C(c1ccc(Cl)cc1)=N[C@@H](CC(=O)NC[C@H]1NC(=O)CNC(=O)C[C@@H](Cc3ccc(-c4ccccc4)cc3)NC(=O)[C@@H]3C[C@@H](O)CN3C(=O)[C@H](C(C)(C)C)NC(=O)COCCNC1=O)c1nnc(C)n1-2 [Compound 64] (cyclo([AEA][Tle][Hyp][X9]G[dDap](JQ1acid))) = > 20 µM
• Cc1sc2c(c1C)C(c1ccc(Cl)cc1)=N[C@@H](CC(=O)NC[C@H]1CCCNC(=O)[C@@H](Cc3ccc(-c4ccccc4)cc3)NC(=O)[C@@H]3C[C@@H](O)CN3C(=O)[C@H](C(C)(C)C)n3cc(nn3)C3(CC3)CNC1=O)c1nnc(C)n1-2 = < 0.05 µM
• Cc1ncsc1-c1ccc([C@H]2NC(=O)[C@@H]3C[C@@H](O)CN3C(=O)[C@H](C(C)(C)C)NC(=O)CSC[C@H](C(N)=O)NC(=O)[C@@H](CCNC(=O)C[C@@H]3N=C(c4ccc(Cl)cc4)c4c(sc(C)c4C)-n4c(C)nnc43)NC(=O)CNC2=O)cc1 [Compound 9] ({CH2CO}-[Tle][Hyp][dPhg(4-(4-Me-thiazol-5-yl))]G[dDab](JQ1acid)[dC]-NH2; thioether N-6) = > 20 µM
• Cc1ncsc1-c1ccc([C@H]2NC(=O)[C@@H]3C[C@@H](O)CN3C(=O)[C@H](C(C)(C)C)NC(=O)CCCCCNC(=O)[C@@H](CNC(=O)C[C@@H]3N=C(c4ccc(Cl)cc4)c4c(sc(C)c4C)-n4c(C)nnc43)NC(=O)CNC2=O)cc1 [Compound 38] (cyclo([Ahx][Tle][Hyp][dPhg(4-(4-Me-thiazol-5-yl))]G[dDap](JQ1acid))) = < 1 µM
• Cc1ncsc1-c1ccc([C@H]2NC(=O)[C@@H]3C[C@@H](O)CN3C(=O)[C@H](C(C)(C)C)NC(=O)CSCC[C@H](C(N)=O)NC(=O)[C@@H](CNC(=O)C[C@@H]3N=C(c4ccc(Cl)cc4)c4c(sc(C)c4C)-n4c(C)nnc43)NC(=O)CCNC2=O)cc1 [Compound 5] ({CH2CO}-[Tle][Hyp][dPhg(4-(4-Me-thiazol-5-yl))][βAla][dDap](JQ1acid)[d(hCys)]-NH2; thioether N-6) = < 20 µM
• Cc1ncsc1-c1ccc([C@H]2CC(=O)NCC(=O)N[C@H](CNC(=O)C[C@@H]3N=C(c4ccc(Cl)cc4)c4c(sc(C)c4C)-n4c(C)nnc43)C(=O)NCCOCC(=O)N[C@@H](C(C)(C)C)C(=O)N3C[C@H](O)C[C@H]3C(=O)N2)cc1 [Compound 55] (cyclo([AEA][Tle][Hyp][β3hPhg(4-(4-MeThiazol-5-yl))]G[dDap](JQ1acid))) = < 1 µM
